# Tested on: Staphylococcus aureus
# assayProtocol: Antibacterial activity against epidemic methicillin-resistant Staphylococcus aureus 16 after 18 hrs
# Assay type: functional
parameter: MIC (µg/mL)

[[record]]
compound = "CCCCCc1cc(O)c(C/C=C(\\C)CCC(O)C(C)(C)O)c(O)c1 (stereo unspecified) [CARMAGEROL]"
parameter = "MIC"
limitoperator = "="
valuemeasured = 32

[[record]]
compound = "CCCCCc1cc2c(c(O)c1C(=O)O)[C@@H]1C=C(C)CC[C@H]1C(C)(C)O2 [DELTA9-TETRAHYDROCANNABINOLIC ACID A]"
parameter = "MIC"
limitoperator = "="
valuemeasured = 4

[[record]]
compound = "Cc1onc(-c2ccccc2)c1C(=O)N[C@@H]1C(=O)N2[C@@H]1SC(C)(C)[C@@H]2C(=O)O [OXACILLIN]"
parameter = "MIC"
limitoperator = ">"
valuemeasured = 128

[[record]]
compound = "CCCCCc1cc(O)c(C/C=C(\\C)CCC=C(C)C)c(O)c1C(=O)O [CANNABIGEROLIC ACID]"
parameter = "MIC"
limitoperator = "="
valuemeasured = 4

[[record]]
compound = "C=C(C)[C@@H]1CCC(C)=C[C@H]1c1c(OC(C)=O)cc(CCCCC)cc1OC(C)=O"
parameter = "MIC"
limitoperator = ">"
valuemeasured = 128

[[record]]
compound = "CC[C@H]1OC(=O)[C@H](C)[C@@H](O[C@H]2C[C@@](C)(OC)[C@@H](O)[C@H](C)O2)[C@H](C)[C@@H](O[C@@H]2O[C@H](C)C[C@H](N(C)C)[C@H]2O)[C@](C)(O)C[C@@H](C)C(=O)[C@H](C)[C@@H](O)[C@]1(C)O [ERYTHROMYCIN]"
parameter = "MIC"
limitoperator = ">"
valuemeasured = 128

